- Experiment Summary: soluble on expression in E. coli; label from the status in PepcDB or PDB records
Parameter: soluble on expression in E. coli

Known soluble on expression in E. coli results, listed for orientation:
[[record]]
residue_string = "MGSDKIHHHHHHMKTAALFVSKEFEEEAIALVEGANYKVTSIYKLPKSPNVKFYIQYDKLQQIKNDEEISTLIIFEQLKPRHFINIRRELKGKEVLDKILLLLEIFALHAGSKEAKMQIELARLKYELPIIKETYTKSKIGEQQGPLGAGTYGVESTIKFYKRRINKLMKELESIKIFKEKSIESNKRNNIPSIGIVGYTNSGKTSLFNSLTGLTQKVDTKLFTTMSPKRYAIPINNRKIMLVDTVGFIRGIPPQIVDAFFVTLSEAKYSDALILVIDSTFSENLLIETLQSSFEILREIGVSGKPILVTLNKIDKINGDLYKKLDLVEKLSKELYSPIFDVIPISALKRTNLELLRDKIYQLATQLS"
observed_value = "not soluble"

[[record]]
residue_string = "SLSLLIDIVDETGSVSEEMLKEVENLLQFAAEREGVQDQAEVSVTIVSNDDIHQINKEYRGKDAPTDVISFALEEEGEGEIEIVGAEMPPVLGNIIISADRTREQAEEYNHSFKRELGFLAVHGFLHLLGYDHMTKEEEEEMFTKQKELLDAYGLKRS"
observed_value = "soluble"

[[record]]
residue_string = "MIFSKKDIQEVLPADVTGRSVAHPKRWLVALVRISHEKKTSERLSKMGIENFLPVQQEVHQWSDRRKVVERVLLPMMIFVHVDMYEQKEVLTLGSISRYMVLRGESTPAVIPDEQMHRFKFMLDYSDEAINMSTTPLSPGTKIKVIKGPLSGLQGELVTVNGKSKVAVRLTMLGCAFVDIPVGCVEPLEK"
observed_value = "not soluble"

[[record]]
residue_string = "MKNESIKIFQKKKQVILEKWITIQSQDQGLNNDLITNEDLRVQSEELLYTFIDNLTDNNIENPDSRDFENVLDILSSISISRAKQGYSPRETGFYVYSLKEALLSVLNEEIKDSSVLYTQSMAINKLLDSFTISTFETFIKGREDVIFRQTDEITQISTPVIRVWDGILALPIIGTLDSSRTQVVMESLLQEIVDTGSSIAILDISGVPAVDSLVAQHLIKTVSATRLMGAECIISGIRPEIAQTVVHLGIDLSTIITKATLASALKTAFVMLNLEVNKKQRNKTV"
observed_value = "not soluble"


Can you give me soluble on expression in E. coli for all of these, one by one?
1. MRTIDDRIVHSLNTTVPTASFSGKVDATQTCKELYESLMEAHLSRDKAIKSCIKETSAVVSQLREERAKDSDNLSVIKQLRKEQTKLKLMQSELNVEEVVNDRSLKVFNERCRIHYTPPKIK
2. LKRYIAGLACAATAVLSAPALASTAHAQAADPISALKSQFSSGRGVNFVDTTKTQGPQGNMVLAKRTGALQFGPSGISASDQTAQLRFKASDFEDLTEGEEDEDFSKFFRGLAKPERVVRIKNTTYVSGGVMGEFMPADKTWVRFPDGLLGFTGAMSQFVNVAEPATLKALLAHATKHGGTYSGKITFGELNKVSPWFRASLGAPTAKTAKIVVSWKLFLGSDRLAKRLVTTYSTAGSAESTVTVDTRYTGWGSKVTVKAPPADQVADLKDLEEGAETATSIPLLGN

**A:**
soluble
soluble

---

- Experiment Summary: soluble on expression in E. coli; label from the status in PepcDB or PDB records
Parameter: soluble on expression in E. coli

[[record]]
residue_string = "MAHHHHHHMPKYYCEYCDIYLTHSSPVGRRQHIHGRKHISAKIEYFQNLLREEGITPQNFLGFLNNRNINNPLGNPMMNYMNPNMYMKYNPMKSYHSYSMRSSHPYRLNIHNNKYSRAGYVPPSHHKYSVNPMHNNYHQAHNNYSYPNSINPSNQINYSNNYGSNNFNNSNEFNKNMNEKDNINNNDIHDNKVKTDENDPINNDNLNNTRNFSYEENHYSTDHKKPSFLNPENSKEHIESDIS"
parameter = "soluble on expression in E. coli"
observed_value = "not soluble"

[[record]]
residue_string = "MGSDKIHHHHHHMAGVMSRRLDVDALRALVAIERHGGVTRAAEILGLSQSAVSHKIRRLETSLDCEILTRKANAPMFTTAGQDLLGYARRILGIHDEAVLSLSKSPLQGKIALGMTEDTTCTDLSRILGRFRRLYPEVSVRTQVRMSLVLQEQLSQGALDAAIIQVFQHEVRPADILLFRETLHWVKSRDLVLSAGKPVPFLSFDENCFYRRWGIDVGQDEDTVLETVFECSSAAGIIAGVTAGLGVALLSQRYLQPAMEIVDDKFPKPPDLAYVIRRARVPRNPALETLVREIEAEVKRYGTLQIAV"
parameter = "soluble on expression in E. coli"
observed_value = "not soluble"


---

- Experiment Summary: soluble on expression in E. coli; label from the status in PepcDB or PDB records
Parameter: soluble on expression in E. coli

Known soluble on expression in E. coli results, listed for orientation:
[[record]]
residue_string = "MSLTNEFEILKPGKLLLASANLLDPNFKRTVLLMCEHNEEGSIGFILNKPMEFKVCEAISGFDEIDEPLHMGGPVQVDTVHVLHTRGDVIDGAVEVIPGLFWGGDKEQLSYLINTGVIKASEVRFFLGYAGWSAGQLEAEFEEGSWYTADASSEQVFTDEYERMWSRSVRSKGGEYCYVANSPELPGMNEGHHHHHH"
parameter = "soluble on expression in E. coli"
observed_value = "soluble"

[[record]]
residue_string = "MKETEILNRAYNYMCTYHKDDATGHDIAHINRVLRLATYIAEQEQSQHMLTIQLASLLHDTVDSKLTNHEKALTKLKSFLKDLQLPKEQQQHILHIIKHISYRHGQNNEVSLTLEGQIVRDADRLDAIGAIGIARTFQFAGHFNEPMWVEHSTKHITETDDAHYDQWSPSAIKHFYEKLLKLKSLMHTETAKQLAAQRHQYMENFINQFFEEWYFLEHHHHHH"
parameter = "soluble on expression in E. coli"
observed_value = "soluble"

[[record]]
residue_string = "MAHHHHHHMEPSTLPYITRDVATEPPTTIAIVSCGGQPPELSGKDETMFAVTEDCVEPTKGWINREGKPLLTVCFMHSFGKCVGRTSSNPATCFQIHIKANVLNALRKHYTNPTRRFFTRTVKAMLSPELRRLLCMRAHKEFKVQYLEYRVSDIFPSTGLLQYEAAYRRWLFSDDTNAEHAGTITVLQCLQFSMTGSCDSSTDCPYIHADLKKAQARDPMLARALRDVSDANQGLPTVSIRVPELLPAGHSSTICPADATYATLTDGANLQSGMPSDPARDFTKVPAFTLVYGEGESGGRCVPLQMHQRESSSSSAGGHANSTYPLSHVPFINQDDPASEMTAAKSQPTSGKNEKASVSGKSGSGWVNNSNEGAGSINNHTGSCGSGTD"
parameter = "soluble on expression in E. coli"
observed_value = "not soluble"

[[record]]
residue_string = "MEPHKVVPLSKPHPPVVGKVTHHSIELYWDLEQKEKRQGPQEQWLRFSIEEEDPKMHSYGVIYTGYATRHVVEGLEPRTLYKFRLKVTSPSGEYEYSPVVSVATTRE"
parameter = "soluble on expression in E. coli"
observed_value = "soluble"

[[record]]
residue_string = "MICNNQREFDNSLKCYQTALVTSQWTVRIRNLNWVLQEKVKSLYVEYQIWRGIDQTNKANPNTLRTNLDQVLAQLETFPTASASPIDSGSAGQLTPFHRSHFHPYKDNKRMRFPSNKEGGLCNSLLSSHYEWC"
parameter = "soluble on expression in E. coli"
observed_value = "not soluble"


Can you give me soluble on expression in E. coli for all of these, one by one?
1. MATKTKTTEAPVLPLNQILAGDCIETMRSLPECSVDLIFADPPYNLQLRGDLHRPDNSRVDAVDDHWDQFSSFSVYDQFTREWLAAARRLLKPNGAIWVIGSYHNIFRVGAALQDQGFWILNDVVWRKSNPMPNFKGKRLTNAHETLIWASKQEASKYTFNYEALKALNEGVQMRSDWVIPICTGHERLKDEQGDKAHPTQKPEALLHRVMVATTNPGDVVLDPFFGTGTTGAVAKMLGRDFIGIEREESYRRIAAERLSRVRRYDASALEVSGSKRAEPRVPFGQLVERGMLRPGEELYSMNNRHKAKVRADGTLIGNDVKGSIHQVGAALEGAPSCNGWTYWCYKREGKMIPIDILRQQIRAEMEDPRPN
2. FLDGIDKAQEEHEKYHSNWRAMASDFNLPPVVAKEIVASCDKCQLKGEAMHGQVDCSPGIWQLDCTHLEGKVILVAVHVASGYIEAEVIPAETGQETAYFLLKLAGRWPVKTVHTDNGSNFTSTTVKAACDWAGIKQEDGIPYNPQSQGVIESMNKELKKIIGQVRDQAEHLKTAVQMAVFIHNKKRKGGIGGYSAGERIVDIIATDIQTKELQKQITKIQNFRVYYRDSRDPVWKGPAKLLWKGEGAVVIQDNSDIKVVPRRKAKIIRDYGKQMAGDDCVASRQDED
3. MESSSTASQSGSRREATRQKLYEAAVTLIAEQGFSATTVDEIAERAGVAKGTVYYNFASKSVLFEELLRHGVGLLTASLRQAAERTAREGRGRVDALDAMIRAGLVFIDRYPAFTQLYVAELWRTNRAWQSTLLVVRQEAVAVVEGVLREGVASGEFSEDIDVPLTAAALVGMVLVAALDWKAFQPERSLDDVHAALSRLLQGRVSGRG
4. MSLKAANRYVAGEKRSDGLAIARKLQAKGYGISLENIGENTKLLAQCREAKMEFDQLIEDVGAIAPGQTVSFDLSHIGLSYQFDTAYGHLIELAEKANEHEVTLMISMEESTKTDQILAVYRQAAELYSNIGITLQAHLFRTPDDLRKLVQLPGKIRIVKGAYQEPSHLAMERSDYLNNRYLELVDHLVSTNHPVSVATHDQKLLEEMERRQFLQSTDVEIEMLYGIQPSQLKLFKEKGYQTRVYLTYGHEWFLYLCHRLAEYPENIYTALIDIINPSLPKVDDMYEGHHHHHH
5. MKLIGITGMPGSGKSAITKLAEKYKIVVVSMGDVVRYETLKQGMPLNPENVGNTAVKLREIYGKEAIAVPCLNYVNEKYNNEDFVIIEGIRSIYEVNYIKKHAELDIIAIHSSPKTRFERLSGRNREDDSNDWNTFVERDERELNFSIGRVISLADYMVVNEGNYMDFVNDLENTFKKIINVN
6. ALGVDKPREIAFEVLDRVRTGEAYANLVLPRLLSKHNLSGRDAAFATEITYGTLRNVGLLDEVIKAASGRELSDIDPEVLDVLRLGAYQVMFTRVEDHAAVDTSVKMVGGLKKFQATGFANAILRNITRKEPEQWLKELEPAEELARVAFRTAHPRWIA

**A:**
["not soluble", "soluble", "not soluble", "not soluble", "not soluble", "not soluble"]

**Q:** What does the record list as soluble on expression in E. coli for MKTAIVTDSTAYLPKEVRERLGIRLIPLSVIFGNETYREEIDMTADEFFAKIKQHPTLPTTSQPSVGEFVDLFTAIREEGYEAVVSIHLSSGISGTYQGAVTAGTMVDGLRVYAYDSEISCMAQGFYAIEAAEMAQAGRSPEDIIARLDEMKQTLRAYFMVDDLAHLQRGGRLTGAQAFIGGLLQIKPLLRFENKVIVPFEKIRTRKKAIHRIEELFAEDAEKGVPLKAAIIHANQPDEAHRWRDELSARYPHVEFSISYFGPVIATHVGEGALGLTWYQP ?
**A:** soluble
